The measurements presented in this section are drawn from the supplement of paper PMC12042874.

experimentNotes: amyloid nucleation score (Sup35N fusion, yeast selection) (log enrichment); library NNK1; higher = more nucleation; inactive = no reads after selection;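 further: zero at mode of non-aggregating sequences after 7 days selection at 30°C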
measure: amyloid nucleation score
Give only the figure.

Previously resolved entries follow.
IAREVSSVTVSPQEGTRWWG ... 0.276
SVDVHYAGRSC ... 0.552
YHNFNSV ... 0.164
ICSNVLFVLILEKEASFGCY ... 4.21
LSVQTWFGLSACYTGQAKYS ... 0.171

GET /value?item= LIQLVDRVGGGVFTRDCDAI &field=amyloid nucleation score returns -0.368

GET /value?item= MVYLGECCITFYSFNSYRVM &field=amyloid nucleation score returns 4.55
